Reference source for all entries: BindingDB's records for doi:10.1021/jm020865i

# tgt: UniProtKB P62937
# Sequence (P62937 whole entry, looked up): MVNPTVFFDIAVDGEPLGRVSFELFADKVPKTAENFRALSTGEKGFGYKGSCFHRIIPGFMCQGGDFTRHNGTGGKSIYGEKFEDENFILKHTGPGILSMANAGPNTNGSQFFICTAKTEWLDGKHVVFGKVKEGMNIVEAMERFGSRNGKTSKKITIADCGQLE
pIC50: −log10 of the molar value. *1 amine or outer side, *2 acyl side, *3 side chain or, on linkers, in order; H or OH if unused. Where a SMILES comes first, the peptide text is derived from it. The star is where a group is joined. pNA = O=[N+]([O-])c1ccc(N*)cc1; Suc = O=C(CCC(=O)[*:2])[*:1]

# compound, pIC50
data = [
    ("C[C@H](NC(=O)CCC(=O)O)C(=O)N[C@@H](C)C(=O)N1CCC[C@H]1C(=O)N[C@@H](Cc1ccccc1)C(=O)Nc1ccc([N+](=O)[O-])cc1 (Suc-AAPF-pNA)", 3.27),
    ("CC(=O)N[C@@H](C)C(=O)N[C@@H](C)C(=O)N1CCC[C@H]1C(=O)N[C@@H](Cc1ccccc1)C(=O)Nc1ccc([N+](=O)[O-])cc1 (Ac-AAPF-pNA)", 3.19),
    ("C[C@H](NC(=O)CCC(=O)O)C(=O)NCC(=O)N1CCC[C@H]1C(=O)N[C@@H](Cc1ccccc1)C(=O)Nc1ccc([N+](=O)[O-])cc1 (Suc-AGPF-pNA)", 2.84),
]
